target.or.system: CYP1A2 (Homo sapiens, UniProt P05177)
Sequence (P05177 whole entry): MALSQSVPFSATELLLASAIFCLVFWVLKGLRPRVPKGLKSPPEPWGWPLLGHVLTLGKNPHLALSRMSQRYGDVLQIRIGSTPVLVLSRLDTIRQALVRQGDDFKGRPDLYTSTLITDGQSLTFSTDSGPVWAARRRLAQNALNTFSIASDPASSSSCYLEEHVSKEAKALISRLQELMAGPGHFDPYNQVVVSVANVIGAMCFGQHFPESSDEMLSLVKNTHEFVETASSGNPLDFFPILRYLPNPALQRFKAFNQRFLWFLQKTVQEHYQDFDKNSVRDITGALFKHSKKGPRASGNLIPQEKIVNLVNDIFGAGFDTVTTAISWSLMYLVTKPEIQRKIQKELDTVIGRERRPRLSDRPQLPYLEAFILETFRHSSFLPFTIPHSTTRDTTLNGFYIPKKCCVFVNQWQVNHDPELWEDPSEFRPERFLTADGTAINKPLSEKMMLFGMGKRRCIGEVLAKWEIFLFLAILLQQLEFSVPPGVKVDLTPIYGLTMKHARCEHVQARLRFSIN
assay.protocol: biochemical
pIC50: −log10 of the molar value.

| chemical.string | pIC50 |
| --- | --- |
| Cc1ccc(N2CCN(C)CC2)cc1C(=O)NC1(c2cc(-c3cnn(C)c3)nc3ccccc23)CC1 | 4.14 |

---

assay.protocol: in vivo
Design: species or system mouse
condition: in vivo; Male C57BL6 mouse; 10 mg/kg po; solution; mean n=2

| chemical.string | units.of.measure | Cmax |
| --- | --- | --- |
| Cc1ccc(N2CCN(C)CC2)cc1C(=O)NC1(c2cc(-c3cnn(C)c3)nc3ccccc23)CC1 | ng/mL | 862 |

---

target.or.system: SARS-CoV-2 PL^pro (Severe acute respiratory syndrome coronavirus 2)
assay.protocol: PLpro enzymatic assay (Z-RLRGG-AMC substrate cleavage)
Type: biochemical
condition: geometric mean of at least three replicates

| molecule | Ki |
| --- | --- |
| Cc1ccccc1C(=O)N[C@H](C)c1cc(-c2cnn(C)c2)nc2ccccc12 [Compound 2] | 116 nM |
